# study_target: T1, PUF4 RNA-binding domain (Saccharomyces cerevisiae, UniProt P25339 537-888)
# T1 sequence: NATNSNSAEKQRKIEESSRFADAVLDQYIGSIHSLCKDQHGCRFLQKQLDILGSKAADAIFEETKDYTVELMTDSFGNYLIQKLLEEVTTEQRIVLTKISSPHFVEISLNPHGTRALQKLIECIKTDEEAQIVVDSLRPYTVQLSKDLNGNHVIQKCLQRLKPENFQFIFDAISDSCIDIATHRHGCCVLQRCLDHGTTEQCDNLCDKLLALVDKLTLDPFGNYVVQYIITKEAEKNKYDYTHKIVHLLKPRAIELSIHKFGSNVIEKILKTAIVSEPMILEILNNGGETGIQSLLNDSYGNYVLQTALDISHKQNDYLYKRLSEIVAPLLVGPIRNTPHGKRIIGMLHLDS
# assay_overview: Mg; RNA-MaP; 20 mM Na-HEPES pH 7.4, 30 mM KOAc, 0.75 mM MgCl2, 0.1% Tween-20, 5% glycerol, 0.1 mg/mL BSA, 2 mM DTT; 25 C; 0.0125-409.6 nM protein
# stated_conditions: tags: N-His6-TEV cleaved; C-SNAP kept, Cy3B-labelled; label: tethered on chip by stalled RNA polymerase
pKd: −log10 of the molar value.
result_type: pKd

INSERT INTO measurements (binder, result_type, measurement_qualifier, number) VALUES
  ('UCUCUUUGUACAUAGUCUCUU (ssRNA) [Ic_S1_P4E.1_K4.1_C4.1_H4.1_A4.1_[T5C]_F4.1_[T8A]_[A9G]_T4.1]', 'pKd', '=', 8.26),
  ('Ic_S4_P4E.1_K4.1_C4.1_H4.1_A4.1_[A6T]_[T7A]_F4.1_[T8C]_[A9C]_T4.1 (ssRNA) RNA: UUUGACAACUGAUCGUUCUUUCUUGUAUUACCUUCUUUCUCGAUCAGUUGUCUUU', 'pKd', '=', 6.72),
  ('Ic_S2_P4E.1_K4.1_C4.1_H4.1_A4.1_[T5A]_[A6T]_[T7C]_F4.1_[T8G]_[A9T]_T4.1 (ssRNA) RNA: UUUGAUUAAUAUGAUAUCGUUCUUUCUUGUAAUCGUUUCUUUCUCGAUAUCAUAUUAAUCUUU', 'pKd', '=', 6.48),
  ('UCUCUUCUUGUAUAUAAAUCUCUU (ssRNA) [Id_ii_S1_P3E.2_K3.1_C3.2_H3.1_A3.1_F3.1_T3.2_[T9A]]', 'pKd', '=', 8.09),
  ('UCUCUUCGACACUAUAGCUCUCUU (ssRNA) [Id_ii_S1_P3E.4_K3.3_C3.2_[T-1G]_H3.3_A3.1_F3.1_T3.2_[T9G]_[A10C]]', 'pKd', '<', 5.64),
  ('Ic_S2_P4E.1_K4.1_C4.1_H4.1_A4.1_[T5C]_[A6T]_F4.1_[A9G]_T4.1 (ssRNA) RNA: UUUGAUUAAUAUGAUAUCGUUCUUUCUUGUACUUUGUUCUUUCUCGAUAUCAUAUUAAUCUUU', 'pKd', '=', 7.88),
  ('UCUCUUAUUGUAUAUUAUCUCUCUU (ssRNA) [Id_ii_S1_P4E.2_K4.1_C4.2_[C-2A]_H4.1_A4.1_F4.1_T4.2_[G10T]_[T11C]]', 'pKd', '=', 9.07),
  ('Id_ii_S2_P5E.2_K5.1_C5.2_[C-2G]_[T-1C]_H5.1_A5.1_F5.1_T5.2_[A12C] (ssRNA) RNA: UUUGAUUAAUAUGAUAUCGUUCUUUCUGCUGUAUUAUUAUCUUCUUUCUCGAUAUCAUAUUAAUCUUU', 'pKd', '=', 7.95),
  ('Id_i_S4_P3E.7_K3.3_C3.3_[T-3A]_[C-2T]_[T-1A]_H3.3_A3.1_F3.1_T3.2 (ssRNA) RNA: UUUGACAACUGAUCGUUCUUUCUAUAACACUAUAUAUUCUUUCUCGAUCAGUUGUCUUU', 'pKd', '=', 6.24),
  ('Id_ii_S2_P3E.2_K3.1_C3.2_H3.1_A3.1_F3.1_T3.2_[A10C] (ssRNA) RNA: UUUGAUUAAUAUGAUAUCGUUCUUUCUCUUGUAUAUAUCUUCUUUCUCGAUAUCAUAUUAAUCUUU', 'pKd', '=', 8.79),
  ('UCUCUUUUUUGUAAAUAUAUCUCUU (ssRNA) [Id_iii_S1_P3E.8_K3.4_C3.3_[C-2T]_H3.1_A3.2_F3.1_T3.2]', 'pKd', '=', 7.75),
  ('Id_i_S4_P3E.4_K3.3_C3.2_[C-2A]_[T-1C]_H3.3_A3.1_F3.1_T3.2 (ssRNA) RNA: UUUGACAACUGAUCGUUCUUUCUACACACUAUAUAUUCUUUCUCGAUCAGUUGUCUUU', 'pKd', '=', 6.53);
